# TESTED ON: fluorescent labeled casein or bovine serum albumin molecules
READOUT KIND: Km
Answer format reminder: number followed by unit.

Query block: Note down Km recorded for Subtilisin E (wild type) (protein) AQSVPYGISQIKAPALHSQGYTGSNVKVAVIDSGIDSSHPDLNVRGGASFVPSETNPYQDGSSHGTHVAGTIAALNNSIGVLGVSPSASLYAVKVLDSTGSGQYSWIINGIEWAISNNMDVINMSLGGPTGSTALKTVVDKAVSSGIVVAAAAGNEGSSGSTSTVGYPAKYPSTIAVGAVNSSNQRASFSSAGSELDVMAPGVSIQSTLPGGTYGAYNGTSMATPHVAGAAALILSKHPTWTNAQVRDRLESTATYLGNSFYYGKGLINVQAAAQ
Result block: 194 µM

Query block: Note down Km recorded for Variant 22 (E54D/Q103R/T133K/E156A/Y217H) (protein) AQSVPYGISQIKAPALHSQGYTGSNVKVAVIDSGIDSSHPDLNVRGGASFVPSDTNPYQDGSSHGTHVAGTIAALNNSIGVLGVSPSASLYAVKVLDSTGSGRYSWIINGIEWAISNNMDVINMSLGGPTGSKALKTVVDKAVSSGIVVAAAAGNAGSSGSTSTVGYPAKYPSTIAVGAVNSSNQRASFSSAGSELDVMAPGVSIQSTLPGGTYGAHNGTSMATPHVAGAAALILSKHPTWTNAQVRDRLESTATYLGNSFYYGKGLINVQAAAQ
Result block: 26 µM

Query block: Note down Km recorded for Variant 4 (Q103R/V138A/A150V/E156A/Y217H/Q271H) (protein) AQSVPYGISQIKAPALHSQGYTGSNVKVAVIDSGIDSSHPDLNVRGGASFVPSETNPYQDGSSHGTHVAGTIAALNNSIGVLGVSPSASLYAVKVLDSTGSGRYSWIINGIEWAISNNMDVINMSLGGPTGSTALKTAVDKAVSSGIVVVAAAGNAGSSGSTSTVGYPAKYPSTIAVGAVNSSNQRASFSSAGSELDVMAPGVSIQSTLPGGTYGAHNGTSMATPHVAGAAALILSKHPTWTNAQVRDRLESTATYLGNSFYYGKGLINVHAAAQ
Result block: 71 µM

Query block: Note down Km recorded for Variant 1 (Y6N/I31L/S38T/F50I/Q103R) (protein) AQSVPNGISQIKAPALHSQGYTGSNVKVAVLDSGIDSTHPDLNVRGGASIVPSETNPYQDGSSHGTHVAGTIAALNNSIGVLGVSPSASLYAVKVLDSTGSGRYSWIINGIEWAISNNMDVINMSLGGPTGSTALKTVVDKAVSSGIVVAAAAGNEGSSGSTSTVGYPAKYPSTIAVGAVNSSNQRASFSSAGSELDVMAPGVSIQSTLPGGTYGAYNGTSMATPHVAGAAALILSKHPTWTNAQVRDRLESTATYLGNSFYYGKGLINVQAAAQ
Result block: 117 µM
